test system: MIA PaCa-2; assay: Growth inhibition of human MIAPaCa2 cells after 72 hrs by MTT assay; assay type: functional, cell-based; conditions: MIA PaCa-2, 72 h
pIC50: −log10 of the molar value.
METRIC: pIC50

These solved cases illustrate the format of a correct answer.
{"SMILES_REPR": "O=c1[nH]c(=O)n(COC(CO)CO)cc1I", "TARGET_ENTITY": "MIA PaCa-2", "pIC50": "< 4.00"}
{"SMILES_REPR": "NCC(=O)Nc1c[nH]c(=O)[nH]c1=O", "TARGET_ENTITY": "MIA PaCa-2", "pIC50": "< 4.00"}

Given item Cc1cc(=O)[nH]c(=O)n1COC(CO)CO , the value recorded as its pIC50 is < 4.00
